# Study system: Dbp2 1-530 (Saccharomyces cerevisiae, UniProt P24783 1-530)
# Sequence (P24783 1-530): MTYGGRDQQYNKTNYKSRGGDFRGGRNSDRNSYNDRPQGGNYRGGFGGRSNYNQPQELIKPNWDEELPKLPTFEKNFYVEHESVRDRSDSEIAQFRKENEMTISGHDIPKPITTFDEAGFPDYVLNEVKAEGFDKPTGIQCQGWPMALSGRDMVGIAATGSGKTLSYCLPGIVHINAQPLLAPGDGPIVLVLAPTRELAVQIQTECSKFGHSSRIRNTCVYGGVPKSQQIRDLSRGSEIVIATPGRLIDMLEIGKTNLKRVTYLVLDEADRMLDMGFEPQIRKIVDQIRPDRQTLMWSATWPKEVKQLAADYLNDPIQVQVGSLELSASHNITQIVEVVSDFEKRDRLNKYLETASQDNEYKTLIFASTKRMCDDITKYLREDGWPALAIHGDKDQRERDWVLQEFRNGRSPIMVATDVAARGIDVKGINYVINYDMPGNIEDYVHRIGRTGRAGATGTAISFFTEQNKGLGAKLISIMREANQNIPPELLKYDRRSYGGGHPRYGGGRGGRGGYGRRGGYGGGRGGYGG
# Method notes: fluorescence anisotropy; Anisotropy: 25 mM Tris-HCl pH 7.5, 20 mM NaCl/30 mM KCl, 2 mM MgCl2, 1 mM DTT, 5 nM labelled nucleic acid, 25 C, 5 min; EMSA: 25 mM Tris-HCl pH 7.5, 30 mM KCl
# Study conditions: protein: recombinant; tags: His6-MBP removed by TEV; label: 3' FAM; G4
pKd: −log10 of the molar value.
Assay endpoint: pKd

Binder	Numeric result
GGGUUAGGGUUAGGGUUAGGG (structured_RNA) [R-G4Tel]	7.72
